assay: clinical; settings: male, human, plasma, po
measurementName: Tmax (min)
Unit min implied. Number only.

# input molecule: COc1cc(NC(C)CCCN)c2ncccc2c1 (stereo not shown) [Primaquine, reference compound] ; wanted: its Tmax 52.3

====

test: clinical; conditions: male, human, plasma, po, Half-life (terminal elimination), median (range) in Table 3; single oral PQ 0.40-0.50 mg/kg; n = 28
measurementName: half-life

Reported half-life for COc1cc(NC(C)CCCN)c2ncccc2c1 (stereo not shown) [Primaquine, reference compound] : what is it? ~7.42 h

Ref: paper PMC11106956
